The measured values listed here are drawn from PubChem BioAssay (NCATS).

# target desc: Cytochrome P450 1A2 (Homo sapiens) (UniProt P05177)
# Sequence (P05177 whole entry, looked up): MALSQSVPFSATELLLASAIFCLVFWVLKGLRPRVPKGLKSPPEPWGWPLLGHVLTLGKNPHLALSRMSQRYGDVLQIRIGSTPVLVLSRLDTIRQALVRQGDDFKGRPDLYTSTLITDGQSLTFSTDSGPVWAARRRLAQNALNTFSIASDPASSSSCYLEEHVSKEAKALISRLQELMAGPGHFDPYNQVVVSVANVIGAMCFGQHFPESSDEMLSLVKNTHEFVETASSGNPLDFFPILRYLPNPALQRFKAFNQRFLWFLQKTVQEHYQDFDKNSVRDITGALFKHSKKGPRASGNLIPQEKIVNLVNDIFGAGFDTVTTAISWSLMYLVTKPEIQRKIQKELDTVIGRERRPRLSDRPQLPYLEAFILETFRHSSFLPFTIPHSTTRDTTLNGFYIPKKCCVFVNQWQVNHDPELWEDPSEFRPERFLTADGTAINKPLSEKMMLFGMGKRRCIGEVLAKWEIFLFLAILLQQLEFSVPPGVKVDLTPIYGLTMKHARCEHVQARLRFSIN
# test method notes: p450-cyp1a2 (AID 410)
# experimental parameters: recombinant CYP1A2, luciferin-ME demethylation, luminescence; series mostly up to 57 µM
Inconclusive results are not listed. Calls of active or inactive are those of the source. Calls follow the shape of the full dose curve.
Response enum: yes (1) (active), no (0) (inactive)

>  <molecule smiles>
COc1cccc(-c2cncnc2NCc2cccc(C)c2)c1

>  <group label>
yes (1)

$$$$
>  <molecule smiles>
Cc1cnc(CNc2cc(-c3ccccc3C)ncn2)cn1

>  <group label>
yes (1)

$$$$
>  <molecule smiles>
COc1ccc(-n2c(=O)c(C)nc3cnc(Nc4ccccc4)nc32)cc1

>  <group label>
yes (1)

$$$$
>  <molecule smiles>
c1cncc(-c2cc(-n3ccnc3)ncn2)c1

>  <group label>
yes (1)

$$$$
>  <molecule smiles>
COc1ccc(-c2nc3cnc(N4CCN(C)CC4)nc3n(CCC#N)c2=O)cc1

>  <group label>
no (0)

$$$$
>  <molecule smiles>
COc1cccc(-c2cc(NCc3ccccc3OC)ncn2)c1

>  <group label>
yes (1)

$$$$
>  <molecule smiles>
N#Cc1cccc(-c2cncnc2NCc2cccnc2)c1

>  <group label>
yes (1)

$$$$
>  <molecule smiles>
COc1cccc(Cn2c(=O)c(-c3cccs3)nc3cnc(OC)nc32)c1

>  <group label>
yes (1)

$$$$
>  <molecule smiles>
COc1ccc(CNc2ncncc2-c2ccccc2C)c(OC)c1

>  <group label>
yes (1)

$$$$
>  <molecule smiles>
c1ccc(Nc2ncnc3ccc(-c4ccc5c(c4)OCO5)cc23)cc1

>  <group label>
yes (1)

$$$$

Task item: Returns: the outcome recorded for `COc1ccc(C(=O)N2CCC3(CCCN(c4ncccn4)C3)CC2)cc1` in this assay.
Reply: yes (1)

Task item: Returns: the outcome recorded for `CN1CCN(c2ncc3nc(-c4ccc(Cl)cc4)c(=O)n(Cc4ccc(F)cc4)c3n2)CC1` in this assay.
Reply: yes (1)

---

# test method notes: qHTS profiling for inhibitors of Plasmodium falciparum proliferation (AID 504749);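 also: 0% = DMSO vehicle and full inhibition = artemisinin control; nearly all actives have a fitted effect of over 60% in size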
# experimental parameters: P. falciparum in erythrocytes, SYBR Green DNA, 72 h; at 28.7 µM (top of the series); parasite line A
Inconclusive results are not listed.
measurement label: activity, negative = inhibition (%)
Give bare numbers, in %.

>  <compound>
CC[C@H](NC(C)C)[C@H](O)c1ccc(O)c(O)c1

>  <activity, negative = inhibition / %>
4.3

$$$$

Hi, could you look up activity, negative = inhibition for each item in my list?
1. CN[C@@H](CC(C)C)C(=O)N[C@@H]1C(=O)N[C@H](CC(N)=O)C(=O)N[C@@H]2C(=O)N[C@H]3C(=O)N[C@H](C(=O)N[C@H](C(=O)O)c4cc(O)cc(O)c4-c4cc3ccc4O)[C@H](O)c3ccc(c(Cl)c3)Oc3cc2cc(c3O[C@H]2O[C@@H](CO)[C@@H](O)[C@@H](O)[C@@H]2O[C@@H]2C[C@](C)(N)[C@H](O)[C@H](C)O2)Oc2ccc(cc2Cl)[C@@H]1O
2. O=C(Cc1cccs1)NC1C(=O)N2C(C(=O)[O-])=C(C[n+]3ccccc3)CSC12 (configuration not stated)
3. CN(C)[C@@H]1C(=O)C(C(N)=O)=C(O)[C@]2(O)C(=O)C3=C(O)c4c(O)ccc(Cl)c4[C@H](O)[C@H]3C[C@@H]12

Reply:
1: 3.64; 2: 4.33; 3: -26.7
